test system: OVCAR-5 ovarian; test: NCI tumour cell line growth inhibition, 48 h
MEASURED_ENDPOINT: GI50

INSERT INTO measurements (compound, system_tested, readout_value) VALUES
  ('COc1cccc(Sc2ccc([N+](=O)[O-])c3no[n+]([O-])c23)c1', 'OVCAR-5 ovarian', '8.31 µM'),
  ('Oc1[nH]c(N=C2N=c3ccccc3=N2)c2ccccc12', 'OVCAR-5 ovarian', '20.4 µM'),
  ('CN(C)C[C@H]1CCn2c(c(C3=C(c4cn(C)c5ccccc45)C(=O)NC3=O)c3ccccc32)C1', 'OVCAR-5 ovarian', '5.35 µM'),
  ('O=C1Nc2ccccc2/C1=C\c1cccc(/C=C2/C(=O)Nc3ccccc32)n1', 'OVCAR-5 ovarian', '0.888 µM'),
  ('CCCCNCCC(O)c1cc2ccc(C(F)(F)F)cc2c2cc(C(F)(F)F)ccc12 (stereo unspecified)', 'OVCAR-5 ovarian', '1.61 µM'),
  ('O=C1NCN(c2ccccc2)C12CCN(CCCC(c1ccc(F)cc1)c1ccc(F)cc1)CC2', 'OVCAR-5 ovarian', '3.76 µM'),
  ('c1ccc2cc(Cn3cc[n+](Cc4ccc5ccccc5c4)c3)ccc2c1', 'OVCAR-5 ovarian', '1.71 µM'),
  ('COC1CC(C)C(OC)c2cc(O)cc(c2O)NC(=O)/C(C)=C/C=C\C(C)C(OC(N)=O)/C(C)=C\C(C)C1OC (stereo unspecified)', 'OVCAR-5 ovarian', '0.549 µM'),
  ('O=C1OCC(c2ccc(O)cc2)=C1c1cc(O)c(O)c(O)c1', 'OVCAR-5 ovarian', '55.6 µM'),
  ('CCN1C(=O)N(CC)C2C1NN=c1s/c(=C\c3cccs3)c(=O)n12 (stereo unspecified)', 'OVCAR-5 ovarian', '0.445 µM'),
  ('O=C1CSC(c2ccc(-c3nc4ccccc4[nH]3)cc2)=N1', 'OVCAR-5 ovarian', '> 50 µM');

###

test system: MDA-MB-231 breast; test: NCI tumour cell line growth inhibition, 48 h
MEASURED_ENDPOINT: TGI (µM)

INSERT INTO results (molecule, measured_endpoint, cmp, readout_value) VALUES
  ('CC(CN(C)C)S(=O)(=O)c1ccc(-c2cnc(N)c(C(=O)Nc3ccccc3)n2)cc1 (stereo not given)', 'TGI', '=', 27.6),
  ('O=C(/C=C/c1ccc(OCc2ccccc2)cc1)NCc1ccc(C(=O)NCc2ccccc2)cc1', 'TGI', '>', 100),
  ('C[C@]12C(=O)C=CCC1=CC[C@@H]1[C@@H]2[C@H]2CC3(O)C(=O)O[C@@]4(C)[C@H]5C[C@@]6(C)[C@@H]7[C@@]2(O)[C@]1(OC[C@H]6C(=O)O5)O[C@]734 (stereo not given in full)', 'TGI', '>', 100),
  ('c1ccc2[nH]c3c(N=NC4=NCCN4)c4ccccc4c-3nc2c1', 'TGI', '=', 32.4),
  ('O=C1/C(=C/c2ccc(F)c(F)c2)CN(C(=O)C(Cl)Cl)C/C1=C\c1ccc(F)c(F)c1', 'TGI', '=', 0.692),
  ('CCCCC(=C=C(C)CO)C1CCCN1C(=O)OC(C)(C)C (stereo not given)', 'TGI', '=', 34),
  ('C=C(C)[C@@H]1CC[C@]2(COCCCNCCCN)CC[C@]3(C)[C@H](CC[C@@H]4[C@@]5(C)CC[C@H](OCCCN)C(C)(C)[C@@H]5CC[C@]43C)[C@@H]12', 'TGI', '=', 1.67),
  ('CCn1c(-c2c(Cl)cc(O)cc2Cl)cc2c(Cl)cc(O)cc21', 'TGI', '=', 31),
  ('Cn1c(=O)c2c(nc3n2CCC(=O)N3CCCCl)n(C)c1=O', 'TGI', '>', 100),
  ('N/C(=N\S(=O)(=O)c1ccc(-c2ccccn2)s1)Nc1ccc(Cl)cc1', 'TGI', '=', 27.9),
  ('O=C(OCC1CCCN2CCCCC12)c1cccnc1 (stereo not given)', 'TGI', '>', 100),
  ('COC(=O)[C@@H]1[C@H](O)CCC2=C(CC(=O)c3ccoc3)[C@H](C)CC[C@]21C', 'TGI', '>', 50),
  ('O=P(O)(O)OCC1OC(n2cnc3c(NCc4ccco4)ncnc32)C(O)C1O (stereo not given)', 'TGI', '=', 13.9),
  ('CC1(C)Oc2ccc3c(=O)cc(-c4cccs4)oc3c2C1C(=O)O (stereo not given)', 'TGI', '>', 100),
  ('CC(=O)OC12CC(C(F)(F)F)(C(F)(F)F)OC1(OC(C)=O)CC(C(F)(F)F)(C(F)(F)F)O2 (stereo not given)', 'TGI', '=', 53.2),
  ('Cc1ccc2[nH]c3c(c2c1)N=c1ccccc1=NO3', 'TGI', '>', 100),
  ('CCCCC[C@H]1CC=C2C(=O)C=C[C@@H]2CC=CCCCC(=O)O[C@@H](CCCCC)CC=C2C(=O)C=C[C@@H]2CC=CCCCC(=O)O[C@@H](CCCCC)CC=C2C(=O)C=C[C@@H]2CC=CCCCC(=O)O1', 'TGI', '=', 0.697),
  ('Cc1nc(N)sc1C(=O)Nc1ncn[nH]1', 'TGI', '>', 100),
  ('O=C1NC(=O)[C@@]2(CC[C@@H](O)C2)c2ccncc21', 'TGI', '>', 100),
  ('CCOc1cc(C(=O)O)c2c(ccc3ccc(OC)c(OC)c32)c1OC', 'TGI', '>', 100),
  ('CC(C)NCC(O)c1ccc(O)c2ncccc12 (stereo not given)', 'TGI', '>', 100),
  ('Nc1nc(Nc2ccc(Cl)cc2)sc1C(=O)c1c[nH]c2ccccc12', 'TGI', '=', 35),
  ('Oc1[nH]c(N=C2N=c3ccccc3=N2)c2ccccc12', 'TGI', '=', 46.2),
  ('Cc1ccc2n(c1)cc(-c1ccc(/C=N/NC(=N)N/N=C/c3ccc(-c4cn5cc(C)ccc5[n+]4C)cc3)cc1)[n+]2C', 'TGI', '>', 100),
  ('CCCCCCCN(CCCCCCC)C(=N)c1ccnc2ccccc12', 'TGI', '=', 3.58);
